Values were extracted from ChEMBL document CHEMBL2331280.

test summary: Cytotoxicity against rat ASK cells after 72 hrs by sulforhodamine B assay
Assay type: functional
particulars: read-out: ED50 (the source's name)
endpoint label: EC50

C=C1COC(=O)CC[C@]23C[C@]24CC[C@]2(C)[C@@H]([C@H](C)CC(=O)C=C(C)C)CC[C@@]2(C)[C@@H]4CC[C@@H]13 (relative stereo); > 10 µM
CC(C)CC(=O)C[C@@H](C)[C@H]1CC[C@@]2(C)[C@@H]3CC[C@H]4[C@](C)(C(=O)O)[C@@H](O)CC[C@@]45C[C@@]35CC[C@]12C (relative stereo); > 10 µM
C=C(C(=O)O)[C@@H]1CC[C@@H]2[C@]3(CC[C@]4(C)[C@@H]([C@H](C)CC(=O)C=C(C)C)CC[C@@]24C)C[C@]13CCC(=O)OC (relative stereo); > 10 µM
